assayDetails: physchem
testSettings: pH 7.4, aqueous buffer, kinetic from dmso stock
quantityMeasured: solubility at 24 h (µg/mL)
Answers are plain numbers, in µg/mL.

Guide cases for solubility at 24 h, answers given:
- O=C(CCCC(F)(F)F)N1CCC(c2nc(-c3ccccc3)no2)CC1: 80
- O=C(CCCC(F)(F)F)N1CC[C@@H](c2nc(-c3cccs3)no2)C1: 237

# input Please look up its solubility at 24 h: "CS(=O)(=O)c1ccc(-c2noc(C3CCN(C(=O)CCCC(F)(F)F)CC3)n2)cc1"
# output 80

====

Give measured EC50 for each item. Keep answers brief.
System: M. tuberculosis H37Rv-GFP in Raw264.7 macrophages
assayDetails: microbe, parasite or virus in culture
Assay type: cell-based
testSettings: Mycobacterium tuberculosis, RAW264.7
One number for each entry, in nM.

• O=C(CCC(F)(F)F)N1CC[C@@H](c2nc(-c3cccs3)no2)C1 = 400

Kindly give each listed record's EC50.
1. CS(=O)(=O)c1ccc(-c2noc(C3CCN(C(=O)CCCC(F)(F)F)CC3)n2)cc1
2. O=C(CCC(F)(F)F)N1CC[C@@H](c2nc(-c3nccs3)no2)C1
3. O=C(CCCC(F)(F)F)N1CC[C@@H](c2nc(-c3cccs3)no2)C1
4. O=C(CCC(F)(F)F)N1CCC(c2nc(-c3cccs3)no2)CC1 [Compound 3, reference compound]
5. O=C(CCCC(F)(F)F)N1CCC(c2nc(-c3cccs3)no2)CC1

# output
1: 20; 2: 6300; 3: 100; 4: 100; 5: 70

State recorded EC50 for all listed compounds.
1. O=C(CCCC(F)(F)F)N1CCC(c2nc(-c3ccccc3)no2)CC1
2. O=C(CCCC(F)(F)F)N1CCC(c2nc(-c3nccs3)no2)CC1

# output
1. 100
2. 60
